Target: androgen receptor (AR) (Homo sapiens, UniProt P10275, T878A)
Sequence (P10275 1-920 T878A): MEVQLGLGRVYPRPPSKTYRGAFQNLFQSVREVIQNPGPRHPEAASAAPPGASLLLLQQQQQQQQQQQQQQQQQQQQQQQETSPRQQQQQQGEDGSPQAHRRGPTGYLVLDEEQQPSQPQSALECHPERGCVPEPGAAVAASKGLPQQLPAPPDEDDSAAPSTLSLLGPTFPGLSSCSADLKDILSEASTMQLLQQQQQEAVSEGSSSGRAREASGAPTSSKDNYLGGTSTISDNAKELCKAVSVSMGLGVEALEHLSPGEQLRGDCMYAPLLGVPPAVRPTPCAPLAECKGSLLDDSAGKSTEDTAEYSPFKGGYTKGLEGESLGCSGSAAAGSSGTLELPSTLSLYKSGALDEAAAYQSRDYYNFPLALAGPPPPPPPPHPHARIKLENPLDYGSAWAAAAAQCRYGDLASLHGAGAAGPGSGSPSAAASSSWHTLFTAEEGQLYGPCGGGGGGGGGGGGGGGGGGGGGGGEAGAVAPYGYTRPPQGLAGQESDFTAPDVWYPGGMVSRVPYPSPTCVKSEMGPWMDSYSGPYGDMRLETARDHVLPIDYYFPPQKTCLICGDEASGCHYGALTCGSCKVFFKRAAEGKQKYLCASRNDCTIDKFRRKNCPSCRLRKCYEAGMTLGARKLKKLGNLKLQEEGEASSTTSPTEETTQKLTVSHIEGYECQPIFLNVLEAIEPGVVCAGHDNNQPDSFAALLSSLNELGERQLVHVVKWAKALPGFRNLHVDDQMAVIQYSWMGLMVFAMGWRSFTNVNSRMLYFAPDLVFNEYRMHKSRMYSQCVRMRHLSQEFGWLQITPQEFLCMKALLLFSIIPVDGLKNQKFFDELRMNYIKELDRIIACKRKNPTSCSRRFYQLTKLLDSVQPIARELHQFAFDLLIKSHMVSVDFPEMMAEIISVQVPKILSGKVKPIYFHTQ
Assay: eGFP cellular AR transcription assay (LNCaP eGFP cells, LN-ARR2PB-eGFP)
Conditions: LNCaP, read-out: % Inhibition (3 μM)
Assign class by inhibition at 3 µM: not lower than 90% means Criterion met; lower than 90% means Criterion not met.

1) CC1CN(c2cnc3ccccc3n2)CC(C)O1 (stereo not shown) [Compound 14487]: Criterion not met
2) c1cc(-c2csc(N3CCCCC3)n2)cs1 [Compound 14131]: Criterion met
3) O=c1[nH]c(N2CCOCC2)cc2ccccc12 [Compound 14453]: Criterion not met
4) CCC1CN(c2nc3ccccc3s2)CCO1 (stereo not shown) [Compound 14392]: Criterion not met
5) c1ccc2c(-c3nc(-c4ccncc4)cs3)c[nH]c2c1 [Compound 14150]: Criterion met
6) O=[N+]([O-])c1ccc2nc(N3CCOCC3)ccc2c1 [Compound 14454]: Criterion not met
7) NC(=S)N/N=C/c1cccc2ccccc12 [Compound 14164]: Criterion not met
8) Clc1ccc(-c2csc(N3CCOCC3)n2)cc1 [Compound 14253]: Criterion not met
9) c1ccc2c(-c3csc(N4CCOCC4)n3)cccc2c1 [Compound 14230]: Criterion met
10) Fc1ccc2sc(N3CCOCC3)nc2c1F [Compound 14409]: Criterion not met

====

Measured inhibition at 3 µM of individual entries
target: androgen receptor (AR) (Homo sapiens, UniProt P10275, T878A); assay: eGFP cellular AR transcription assay (LNCaP eGFP cells, LN-ARR2PB-eGFP); conditions: LNCaP, read-out: % Inhibition (3 μM)
measured attribute: inhibition at 3 µM (%)

1. c1ccc2nc(N3CCOCC3)ccc2c1 [Compound 14401]: 76
2. O=[N+]([O-])c1ccc(-c2csc(N3CCOCC3)n2)cc1 [Compound 14254]: 3.37
3. C/C(=N\NC(N)=S)c1ccc2c3c(cccc13)CC2 [Compound 14206]: 109
4. Nc1cccc(-c2ccc3ccccc3n2)c1 [Compound 14321]: 66.5
5. Oc1ccc(-c2ccc3ccccc3n2)cc1 [Compound 14440]: 8.65
6. c1ccc(-c2csc(-c3c[nH]c4ccccc34)n2)cc1 [Compound 14361]: 41.6
7. c1ccc(-c2ccc(N3CCOCC3)s2)cc1 [Compound 14103]: 100
8. c1cc2c(cc1-c1csc(N3CCOCC3)n1)CCCC2 [Compound 14291]: 18.6
9. CC(C)Oc1c(F)cccc1-c1csc(N2CCOCC2)n1 [Compound 14430]: 106
10. C/C(=N/O)c1ccc2c(C)ccc3c2c1CC3 [Compound 14171]: 99.6
11. Oc1c(-c2csc(N3CCOCC3)n2)ccc(F)c1F [Compound 14371]: 98.9
